System: Rice Sheath Blight Disease
Experiment: Microbicidal activity, spray then strip inoculation (Embodiment 8)
Details: Oryza sativa, read-out: Rice Sheath Blight Disease Average inhibition rate (%)
quantity.name: pest or weed control at 500 µg/g (%)

>>> print(df.to_string())
                                    compound                study_target                     quantity_name  endpoint_value
 0  COC(=O)NC(=S)Nc1ccccc1NC(=S)NC(=O)OC [Thiophanate-methyl, reference compound]  Rice Sheath Blight Disease  pest or weed control at 500 µg/g              85
 1  Cc1ncc(Cn2cc(COC(=O)c3cc([N+](=O)[O-])cc([N+](=O)[O-])c3)nn2)c(N)n1  Rice Sheath Blight Disease  pest or weed control at 500 µg/g              50
 2  Cc1ncc(Cn2cc(COc3cccc(C(F)(F)F)c3)nn2)c(N)n1  Rice Sheath Blight Disease  pest or weed control at 500 µg/g              60
 3   Cc1ccc(Cl)c(OCc2cn(Cc3cnc(C)nc3N)nn2)c1  Rice Sheath Blight Disease  pest or weed control at 500 µg/g              80
 4    Cc1ncc(Cn2cc(COc3cccc(C)c3C)nn2)c(N)n1  Rice Sheath Blight Disease  pest or weed control at 500 µg/g              70
 5        Cc1ncc(Cn2cc(COc3ccccc3)nn2)c(N)n1  Rice Sheath Blight Disease  pest or weed control at 500 µg/g              80
 6  Cc1ncc(Cn2cc(COc3ccc([N+](=O)[O-])cc3[N+](=O)[O-])nn2)c(N)n1  Rice Sheath Blight Disease  pest or weed control at 500 µg/g              70
 7  Cc1ncc(Cn2cc(COc3ccc([N+](=O)[O-])cc3)nn2)c(N)n1  Rice Sheath Blight Disease  pest or weed control at 500 µg/g              90
 8  Cc1ccc(C(=O)OCc2cn(Cc3cnc(C)nc3N)nn2)cc1  Rice Sheath Blight Disease  pest or weed control at 500 µg/g              50
 9  CCOC(=O)c1ccc(OCc2cn(Cc3cnc(C)nc3N)nn2)cc1  Rice Sheath Blight Disease  pest or weed control at 500 µg/g              80
10  Cc1ncc(Cn2cc(COc3ccc(C(=O)O)cc3)nn2)c(N)n1  Rice Sheath Blight Disease  pest or weed control at 500 µg/g              70
11  Cc1ncc(Cn2cc(COC(=O)c3ccccc3F)nn2)c(N)n1  Rice Sheath Blight Disease  pest or weed control at 500 µg/g              50
12   Cc1ncc(Cn2cc(COc3ccc(F)cc3Cl)nn2)c(N)n1  Rice Sheath Blight Disease  pest or weed control at 500 µg/g              70
13  COC(=O)Cc1ccc(OCc2cn(Cc3cnc(C)nc3N)nn2)cc1  Rice Sheath Blight Disease  pest or weed control at 500 µg/g              90
14  Cc1ncc(Cn2cc(COC(=O)c3ccc(F)cc3)nn2)c(N)n1  Rice Sheath Blight Disease  pest or weed control at 500 µg/g              40
15      COc1ccc(OCc2cn(Cc3cnc(C)nc3N)nn2)cc1  Rice Sheath Blight Disease  pest or weed control at 500 µg/g              70
16  Cc1ncc(Cn2cc(COc3ccc(Cl)cc3Cl)nn2)c(N)n1  Rice Sheath Blight Disease  pest or weed control at 500 µg/g              70
17  Cc1ncc(Cn2cc(COc3ccccc3[N+](=O)[O-])nn2)c(N)n1  Rice Sheath Blight Disease  pest or weed control at 500 µg/g              70
18  Cc1ncc(Cn2cc(COC(=O)c3ccc([N+](=O)[O-])cc3)nn2)c(N)n1  Rice Sheath Blight Disease  pest or weed control at 500 µg/g              60
